These data points were gathered from the supplement of paper PMC13380429.

- Test system: Vero E6 infected with SARS-CoV-2
- test_name: inhibition of SARS-CoV-2 cytopathic effect; higher = more antiviral protection, active = above 15
- experimental_setup: 10000 nM; 48 h
assay_readout: inhibition of SARS-CoV-2 cytopathic effect (%)
Respond with the bare value in %.

COc1ccc(/C=C/C(=O)O)cc1 [trans-4-methoxycinnamic-acid] | -1.56
CCOC(=O)CC(=O)N1CCSC1COc1ccccc1OC (configuration not stated) | 0.52
CCC(=O)O[C@]1(C(=O)COC(C)=O)CC[C@H]2[C@@H]3C[C@H](C)C4=CC(=O)C=C[C@]4(C)[C@H]3[C@@H](O)C[C@@]21C [methylprednisolone-aceponate] | 2.69
CC(C)(c1ccc(O)cc1)c1ccc(O)cc1 | 4
c1ccc(C[C@H](c2ccccc2)N2CCCCC2)cc1 (racemic) [1-(1,2-diphenylethyl)piperidine-(+/-)] | 2.17

Now examine the next entry.
Recorded inhibition of SARS-CoV-2 cytopathic effect for CC(=O)OC[C@H]1O[C@@](COC(C)=O)(O[C@H]2O[C@H](COC(C)=O)[C@@H](OC(C)=O)[C@H](OC(C)=O)[C@H]2OC(C)=O)[C@@H](OC(C)=O)[C@@H]1OC(C)=O [sucrose-octaacetate] , please?
-0.86
